Attribution: the nanobody polyreactivity screen of Harvey et al. (2022)

Assay: yeast display, Sf9 membrane polyspecificity reagent, FACS + sequencing; frameworks hold sequencing errors
resultType: polyreactivity (PSR sort gate)

# example entries with known answers
[[record]]
primarysequence = "QVQLVESGGGLVQAGGSLRLSCAASGRTFPSYAMGWYRQAAGKERELVAAITVSGGNTYYADSVKGRFTISRDNAKNTVYLQMNSLKPEDTAVYYCNTASYVSWYVHYYYWGQGTQVTVSS"
resulttype = "polyreactivity (PSR sort gate)"
observedmeasurement = "low polyreactivity"

[[record]]
primarysequence = "QVQLVESGGGLVQAGGSLRLSCAASGSIFKGYAMGWYRQAPGKERELVASISWRGDNTYYADSVKGRFTISRDYAKNTVYLQMNSLKPEDTAVYYCNAQSREHYFFIYDYWGQGTQVTVSS"
resulttype = "polyreactivity (PSR sort gate)"
observedmeasurement = "high polyreactivity"

[[record]]
primarysequence = "QVQLVESGGGLVQAGGSLRLSCAASGSTFGYYAMGWYRQAPGKERELVATITKRGGSTYADSVKGRFTISRDNAKNTVYLQMNSLKPEDTAVYYCAKLPFEDYDYWGQGTQVTVSS"
resulttype = "polyreactivity (PSR sort gate)"
observedmeasurement = "low polyreactivity"

[[record]]
primarysequence = "QVQLVESGGGLVQAGGSLRLSCAASGRILGKYAMGWYRQAPGKERELVAAIRLRGGSTYYADSVKGRFTISRDNAKNTVYLQMNSLKPEDTAVYYCAARYWDRSQAYTYWGQGTQVTVSS"
resulttype = "polyreactivity (PSR sort gate)"
observedmeasurement = "high polyreactivity"

[[record]]
primarysequence = "QVQLVESGGGLVQAGGSLRLSCAASGRTNKSNTLGWYRQEPGKQMELVAAISWRVGSTYYADSVKGRFTISRDNAKNTVYLQMNSLKPEDTAVYYCAARPWGYTVGSNYRYYLYGYWGLGTQVTVSS"
resulttype = "polyreactivity (PSR sort gate)"
observedmeasurement = "high polyreactivity"


Hello, please tell me recorded polyreactivity (PSR sort gate) for this one: `QVQLVESGGGLVQAGGSLRLSCAASGLIFKVYAMGWYRQAPGKEWELVAAITYSGGSTDYADSVKGRFTISRDNAKNTVNLQMNSLKPEDTAVYYCNVEKVGHVNSYGYDYWGQGTQVTVSS`
low polyreactivity

Hello, please tell me recorded polyreactivity (PSR sort gate) for this one: `QVQLVESGGGLVQAGGSLRLSCAASGSTFTLYAMGWYRQAPGKERELVATITGSGGSTNYADSVKGRFTISRDNAKNTVYLQMNSLKPEDTAVYYCAAYNPFYYKFDYWGQGTQVTVSS`
high polyreactivity

Hello, please tell me recorded polyreactivity (PSR sort gate) for this one: `QVQLVESGGGLVQAGGSLRLSCAASGRTFVDYVMGWYRQAPGKERELVAAISRSGSTYYADSVKGRFTISRDNAKNTVYLQMNSLKPEDTAVYYCAASSVALPWYVSWYVYGYEYWGQGTQVTVSS`
low polyreactivity

###

Assay: yeast display, Sf9 membrane polyspecificity reagent, FACS + sequencing; frameworks hold sequencing errors
resultType: polyreactivity (PSR sort gate)

# example entries with known answers
[[record]]
primarysequence = "QVQHVESGGGLVQAGGSLRLSCAASGFIFGVYDMGWYRQAPGKERELVAAIDCVGSTYYADSVKGRFTISRDNAKNTVYLQMNSLKPEDTAGYYCNAARSRLYYDKYYYWGQGTQVTVSS"
resulttype = "polyreactivity (PSR sort gate)"
observedmeasurement = "low polyreactivity"

[[record]]
primarysequence = "QVQLVESGGGLVQAGGSLRLSCAASGRIFPYYAMGWSRQAPGKVRELVAAISVSDVRTYYPDSVKGRFTISRDNAKNTVYLQMNSLKPEDTAVYYCAAYWYRSPQSGLDYWGQGTQVTVSS"
resulttype = "polyreactivity (PSR sort gate)"
observedmeasurement = "low polyreactivity"

[[record]]
primarysequence = "QVQLVESGGGLVQAGGSLRLSCAASGLTLRCNTMGWYRQAPGKERELVADITASAGSTYYADSVKGRFTISRDNAKNTVYLQMISLKPEDTAVYYCAARVYIAYISMDHWGQGTQVTVSS"
resulttype = "polyreactivity (PSR sort gate)"
observedmeasurement = "low polyreactivity"

[[record]]
primarysequence = "QVQLVESGGGLVQAGGSLRLSCAASGLIFTSYAMGWYRQAPGKERELVAAISTGGGRTYYADSVKGRFTISRDNAKNTVYLQMNSLKPEDTAVYYCAADSVTYGYDYWGQGTQVTVSS"
resulttype = "polyreactivity (PSR sort gate)"
observedmeasurement = "high polyreactivity"

[[record]]
primarysequence = "QVQLVESGGGLVQAGGSLRLSCAASGRTFGQNAMGWYRQAPGKERELVAAISASGSNTYYADSVKGRFTISRDHAKNTVYLQMNSLKPEDTAVYYCAKQVYRPGQQSRYDYWGQGTQVTVSS"
resulttype = "polyreactivity (PSR sort gate)"
observedmeasurement = "low polyreactivity"

[[record]]
primarysequence = "QVQLVESGAGLVQAGGSLRLSCAASGFTFWRYVMGTYRPAPGKERELVAGITSGGSTYYADSVKGRFTISRDNAKNTVYLQMNSLKPEDTAVYYCAARSGFRSRHKYDYWGQGTQVSVSS"
resulttype = "polyreactivity (PSR sort gate)"
observedmeasurement = "high polyreactivity"

[[record]]
primarysequence = "QVQLVESGGGLVQAGGSLRLSCAASGSIFPSNAMGWYRQAPGKERELVAAISWSGDITYYADSVKGRFTISRDNAKNTVYLQMNSLKPEDTAVYYCAADTPIAGYWYNYWGQGTQVTVSS"
resulttype = "polyreactivity (PSR sort gate)"
observedmeasurement = "low polyreactivity"

[[record]]
primarysequence = "QVQLVESGGGLGQAGGSLRLSCAASGRTFTGYAMGWYRQAPGKERELVATISRSGGTTSYADSVKGRFTISRDNAKNTVYVQMNSLKPVDTAVYYCAADRRSRPYYYWGQGTQVTVSS"
resulttype = "polyreactivity (PSR sort gate)"
observedmeasurement = "high polyreactivity"


Hello, please tell me recorded polyreactivity (PSR sort gate) for this one: `QVQLVESGGGLVQAGGSLRLSCAASGRTLPINAMGWYIEAPGKERELVAAISTSGTRTYYADSVKGRFTISRDNAKNTVYLQMNSLKPEDTAVYYCNKDYWKVRSYDYCGQGTQVTVSS`
low polyreactivity

Hello, please tell me recorded polyreactivity (PSR sort gate) for this one: `QVQLVESGGGLVQAGGSLRLSCAASGRTFRFYTMGWYRQAPGKERELVADISWTSGRTYYADSVKGRFTISRDNAKNTVYLQMNSLKPEDTAVYYCAAYFFSRYSLYDYWGQGTQVTVSS`
high polyreactivity

Hello, please tell me recorded polyreactivity (PSR sort gate) for this one: `QVQLVESGGGLVQAGGSLRLSCAASGSIFLYNAMGWYRQAPGKERELVATITYIGGRTYYADSVKGRFTISRDNAKNTVYLQMNSLKQEDTAVYYCAAEYYVISSPSFYEYDYWGQGTQVTVSS`
low polyreactivity

Hello, please tell me recorded polyreactivity (PSR sort gate) for this one: `QVQLVESCGGLVQAGGSLRLSCASSGLTFSRYAMGWSRQAPGKERELVAVISRSGGSTYYADSVKGRFTISRDNAKTTVYLHMNSLKPEDTAVYYCAVRAYIKMDYWGQGTQVTVSS`
high polyreactivity

###

Test: yeast display, Sf9 membrane polyspecificity reagent, FACS + sequencing; frameworks hold sequencing errors
resultType: polyreactivity (PSR sort gate)

# example entries with known answers
[[record]]
primarysequence = "QVQLVESGGGLVQAGCILRLSCASSGIIFSYAMGWYRQAPGKESELVAAISGRDGSTYYADSVKGRFTISRDNAKNTVYLQMNSLKPEDTAVYYCAKRISYLPVEMDYWGHGTQVTVSS"
observedmeasurement = "low polyreactivity"

[[record]]
primarysequence = "QVQLQESGGGLVQAGGSLRLSCAASGSIFYWPWMGWYRQAPGREREFVATITTGSNTYYADIMKGHLTISRDNARNTVYLQMKSLKPEDTAVYYCAVVGDGEIEHRYWGQGTQVTVSS"
observedmeasurement = "high polyreactivity"

[[record]]
primarysequence = "QVQLLESGGGLVPAGGSLRLSWAASGSTLYDYTMGWYRQAPGKERELVAAIRVSGARTFYADSVKGRFTISRDNAKNTVYLQRNSLKPEDTAVYYCAARWYIANPLSPSDYWGQGTQVTVSS"
observedmeasurement = "low polyreactivity"

[[record]]
primarysequence = "QVQLVESGGGLVQAGGSLRLSCAASGSTFTGNVMGWYRQAPGKERELVAAIDSGATTNYADSVKGRFTISRDNAKNTVYLQINSLKPEDTAVYYCATDGLDFWFIYDYWGQGTQVTVSS"
observedmeasurement = "low polyreactivity"

[[record]]
primarysequence = "QVQLVESGGGLVQAGGSLRLSCAASGFIFIVNAMGWYRQAPGKERELVATISSSGDITRYADSVKARFTISRDNAKNTVYLQMNSLKPEDTAVYYCAARLWTGYWGQGTQVTVSS"
observedmeasurement = "high polyreactivity"

[[record]]
primarysequence = "QVQLVESGGGLVQAGGSLRLSCAASGFTFQTYAMGWYRQAPGKERELVATINSSGGGTYYADSVKGRFTNSRDNAKNTVYLQMNSLKPEDTAVYYCAADAVWFVGQAFDISDSTTYGYWGQGTQVTVSS"
observedmeasurement = "low polyreactivity"

[[record]]
primarysequence = "QVQLVESGGALVQAGGSLRISCAASGFTFHKNAMGWYRQAPGKERELVAAITYRGGSTYYADSVKGRFTISRDNAKNTVYLQMNSLKPEDTSVYYCAAELRPYITYDGPRKKFYFWGQGTQVTVSS"
observedmeasurement = "high polyreactivity"

[[record]]
primarysequence = "QVQLVESGGGLVQAVGSLRLSCAASGSTFPYYTMGWYRQAPGKERELVAAITASGGSTYYADSVKGRVTISRDNAKNTVYLQMNSLKPEDTAVYYCAATCLNHVRKSRGYDYWGQGTQVTVSS"
observedmeasurement = "high polyreactivity"

[[record]]
primarysequence = "QVQLVESGGGLVQAGGSLRLTCAASGSTFVRYAMGWSRQAPGKERELVAAISRGGRTNYADSVKGRFTISRDNAKNTVYLQMNSLKPEDTAVYDCAKDRNIYYTYDYWGQGTQVTVSS"
observedmeasurement = "low polyreactivity"

[[record]]
primarysequence = "QVQLVESGGGLVQAGGSLRLSCAASGSIFYQYGMGWYRQAPGKERELVAAITYDDDSTYYADSVKGRFTISRDNAKNTVYLQMNSLKPEDTAVYYCAAYYYKLEYDYWGQGTQVTVSS"
observedmeasurement = "high polyreactivity"


Hello, please tell me recorded polyreactivity (PSR sort gate) for this one: `QVQHVESVGGLVQAGGSLRLSCAASGRIFNYNSMGWYRLAPVKERELVAVITSVDSTNYADSVKGRFTISRDNAKNTVYLQMNSLKQEDTAVYYCASEYYSIRYGPHSIEVYCMEYWGQGTQVTVSS`
low polyreactivity

Hello, please tell me recorded polyreactivity (PSR sort gate) for this one: `QVQLVESGGGLVQAGGSLRLSCAASGSIFGNAMGWYRQAPGKEREFVAAISSSGSSTYYADSVKGRFTISRDNAKNTVYLQMNSLKPEDTAVYYCANRRRSAAPKYDYWGQGTQVTVSS`
high polyreactivity
